# Test system: Wnt5a (protein binding on small-molecule microarray)
# Assay text: Wnt5a binders on small-molecule microarray, primary screen, biophysical, 635/667 nm fluorescence (AID 1142);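 also: fluorescence read at 667 nm with signal to noise per printed feature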
# Measurement setup: 635 nm fluorescence, higher = more signal
Experimental readout: composite z-score
// return a plain number; no unit text

# count of solved cases: 8
Compound | Experimental readout | Test value
COCCOC(=O)N1C(=O)[C@@]2(c3cc(C#CC4=CCCCC4)ccc31)[C@H](C(=O)NC[C@H](O)c1ccccc1)[C@H]1C(=O)O[C@H](c3ccccc3)[C@H](c3ccccc3)N1[C@@H]2c1ccccc1OCCO | composite z-score | 0.255
NC(=O)[C@H]1[C@@H]2C(=O)O[C@@H](c3ccccc3)[C@@H](c3ccccc3)N2[C@@H](c2ccc(O)cc2)[C@]12C(=O)Nc1ccc(C#CCCO)cc12 | composite z-score | -0.183
C=CCC(OC(C)=O)[C@@H]1[C@@H](N(Cc2cc3ccccc3o2)C(=O)c2ccc(C)cc2)c2cc(OCCCO)ccc2N1C(=O)c1ccc2ccccc2n1 (some centres not stated) | composite z-score | -0.0502
C[N+](C)(C)CCCCNC(=O)[C@@H]1C[C@@H]2C(=O)N3CCC[C@H]3C(=O)N2[C@@H]1c1cccc(OCCO)c1 | composite z-score | 0.256
COCCOC(=O)N1C(=O)[C@@]2(c3cc(C#CCNC(N)=O)ccc31)[C@H](c1ccccc1OCCO)N1[C@H](c3ccccc3)[C@H](c3ccccc3)OC(=O)[C@H]1[C@@H]2C(=O)NC[C@H](O)c1ccccc1 | composite z-score | 0.439
C=C(CCCC)/C(=C/C[C@@H](OC(=O)c1ccncc1)c1cccc(OCCO)c1)c1cc(C(=O)OC)ccc1OC | composite z-score | 0.153
CO[C@@H]1COC(=O)[C@H](COCc2ccccc2)NC(=O)CC=C[C@@H](C)[C@H](OC)COC(=O)[C@H](COCc2ccccc2)NC(=O)CC=C[C@H]1C | composite z-score | 0.0648
O=C1O[C@@H](c2ccccc2)[C@@H](c2ccccc2)N2[C@@H](c3ccc(OCCO)cc3)[C@]3(C(=O)Nc4ccc(C#CCCO)cc43)[C@@H](C(=O)N3CCN(c4ncccn4)CC3)[C@H]12 | composite z-score | 0.544

IN: Requested read-out: composite z-score. Entry: `C=C[C@H](OC)[C@@H](OC(=O)Nc1ccc(SC)cc1)c1ccc(O)c(F)c1`
OUT: 0.418

IN: Field request: composite z-score | item: `CCCC[C@@H]1C[C@H]1[C@@H](NC(=O)c1ccccc1)c1ccccc1C(F)(F)F`
OUT: 0.175

IN: What value of measured composite z-score is listed for `C=CCNC(=O)[C@H]1[C@@H]2C(=O)O[C@@H](c3ccccc3)[C@@H](c3ccccc3)N2[C@@H](c2ccccc2OCCO)[C@]12C(=O)N(C(=O)OCCOC)c1ccc(C#CCC(C(=O)OC)C(=O)OC)cc12` ?
OUT: 0.302

IN: Looking for the measured composite z-score of `O=C1O[C@H](c2ccccc2)[C@H](c2ccccc2)N2[C@H]1[C@@H](C(=O)NC[C@H](O)c1ccccc1)[C@]1(C(=O)Nc3ccc(C#CC4=CCCCC4)cc31)[C@H]2c1ccc(OCCO)cc1` , can you help?
OUT: 0.271

---

# Assay text: small-molecule microarray binders of probe aCHRDL2, primary screen, biochemical, biotinylated probe, 635/667 nm fluorescence (AID 1100)
# Measurement setup: higher = more signal
Returns y if the recorded composite z-score is greater than or equal to -0.1, and n otherwise.

Worked set:
Molecule | Group label
CO[C@H]1COC(=O)CC=C[C@H](C)[C@@H](OC)COC(=O)[C@H](Cc2ccccc2)NC(=O)CC=C[C@@H]1C | n
COC(=O)c1c(CC[C@@H](CO)NC(=O)N[C@H](Cn2cc(-c3cncn3C)nn2)C(C)C)oc(C(C)=O)c1C(=O)OC | n
C#CCCCON=C1C[C@@H](O)[C@@H](O)[C@@H]2[C@@H]3C(=O)N(Cc4ccc5c(c4)OCO5)C(=O)[C@@H]3CC[C@@H]12 | y
CO[C@H]1COC(=O)CC=C[C@H](C)COC(=O)[C@@H](OCc2ccccc2)C=C[C@@H]1C | n
CN(C)CCCC[C@@H]1NC(=O)[C@@H]2C[C@H](C(=O)NCCCCCNC(=O)CS)[C@H](c3ccc(O)cc3)N2C1=O | n

IN: Record `COCCOC(=O)N1C(=O)[C@@]2(c3cc(C#CC4=CCCCC4)ccc31)[C@H](C(=O)NC[C@H](O)c1ccccc1)[C@H]1C(=O)O[C@H](c3ccccc3)[C@H](c3ccccc3)N1[C@@H]2c1ccccc1OCCO` ; criterion: composite z-score no lower than -0.1. Met?
OUT: y

IN: # check: composite z-score of COc1ccc(C(O)C2C=CC3C(=O)N(C)C(=O)C3N2N2CCCCC2)cc1OCc1ccccc1 (configuration not stated) is greater than or equal to -0.1
OUT: y

---

# Assay text: fission yeast growth modulation, primary screen, strain 972, OD600, 24 h, no modulator (AID 1090);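 also: basal condition with compound alone and no growth modifier present; test concentration not given here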
# Measurement setup: S. pombe 972 growth, higher = more signal, called active from +8 up or from −8 down
The source made the active and inactive calls.
Experimental readout: z-score

Some compounds with recorded z-score:
Compound | z-score
COCCOC(=O)N1C(=O)[C@@]2(c3cc(C#CCC(C(=O)OC)C(=O)OC)ccc31)[C@H](c1ccccc1OCCO)N1[C@H](c3ccccc3)[C@H](c3ccccc3)OC(=O)[C@H]1[C@@H]2C(=O)N1CCCCCCC1 | 0.639 (inactive)
COc1ccc(CCN2C(=O)[C@@]3(c4ccc([N+](=O)[O-])cc4)CC(=O)N(CC45CC6CC(CC(C6)C4)C5)[C@@H]3c3ccc(CO)cc32)cc1 | -0.3 (inactive)
COc1ccc(C(O)C2C=CC3C(=O)N(C)C(=O)C3N2N2CCCCC2)cc1OCc1ccccc1 (stereo not drawn) | -0.0814 (inactive)
C=C(COC)/C(=C/C[C@@H](OC(C)=O)c1cccc(OCCO)c1)c1cc(C(=O)OC)ccc1OC | -1.11 (inactive)
COCCOC(=O)N1C(=O)[C@@]2(c3cc(C#CCNC(N)=O)ccc31)[C@H](c1ccc(OCCO)cc1)N1[C@H](c3ccccc3)[C@H](c3ccccc3)OC(=O)[C@H]1[C@@H]2C(=O)Nc1nc2ccccc2s1 | 1.11 (inactive)
[N-]=[N+]=NCc1ccccc1C[C@@]1(C(=O)O)N=C(c2ccc(OCCCO)cc2)O[C@@H]1c1ccccc1N=[N+]=[N-] | -1.02 (inactive)

IN: Reported z-score, compound `O=C/C=C/c1ccc(/C=C/c2ccccc2)cc1` : ____
OUT: -19.7 (active)

IN: Name the recorded z-score for `CO[C@H]1COC(=O)[C@H](CCSC)NC(=O)CC=C[C@@H](C)COC(=O)[C@@H](OCc2ccccc2)C=C[C@@H]1C` .
OUT: 0.353 (inactive)

IN: GET /values?readout=z-score&item= C[C@@H]1NC(=O)[C@H](Cc2ccccc2)NC(=O)[C@@]23C(=O)N[C@@H](Cc4ccccc4)C2[C@H](C)[C@@]2(C)O[C@H]2C3/C=C/C/C=C\CNC1=O (stereo partly drawn)
OUT: 0.0909 (inactive)

IN: Given `C/C(=N\O)C(=O)NCCCCCNC(=O)OCc1ccccc1` , state its recorded z-score.
OUT: -0.966 (inactive)

---

# Assay text: compound binding in COS7 lysate, probe aLAP1, primary screen, cell lysate, small-molecule microarray (AID 1124);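 also: lysate comes from COS7 cells expressing LAP1 and is applied at 0.3 µg/mL; score merges spot fluorescence near 667 nm with signal-to-noise over triplicate slides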
# Measurement setup: probe aLAP1, fluorescence, higher = more signal
1 means recorded composite z-score is -0.02 or above; -1 means it is below -0.02.

Cpd smiles | Group label
COCCCNC(=O)[C@@]1(Sc2ccc(C)cc2)CC(=O)N(Cc2cc(C(F)(F)F)cc(C(F)(F)F)c2)[C@@H]1c1ccc(CO)cc1I | -1
CO[C@H]1COC(=O)[C@H](C)NC(=O)CC=C[C@@H](C)[C@H](NS(=O)(=O)c2ccc(C)cc2)COC(=O)[C@@H](OCc2ccccc2)C=C[C@@H]1C | -1
C=CCC1=C[C@H]2[C@H]([C@@H]3C=C[C@]2(CC=C)C(=O)[C@]32CO2)[C@@]2(CO2)C1=O | -1
O=C1O[C@H](c2ccccc2)[C@H](c2ccccc2)N2[C@H]1[C@@H](C(=O)NC[C@H](O)c1ccccc1)[C@]1(C(=O)Nc3ccc(C#CC4(O)CCCCCC4)cc31)[C@H]2c1ccc(OCCO)cc1 | 1
C=CC[C@]1(C(N)=O)N=C(c2ccc(OCCCO)cc2)O[C@H]1c1ccccc1CN=[N+]=[N-] | 1

Now let's try a different one.
IN: hey, is composite z-score for this one >= -0.02? `NC(=O)[C@H]1[C@@H]2C(=O)O[C@@H](c3ccccc3)[C@@H](c3ccccc3)N2[C@@H](c2ccc(O)cc2)[C@]12C(=O)Nc1ccc(C#CCCO)cc12`
OUT: 1
